Listing of entries alongside the reported pIC50.
# target.of.assay: dengue virus NS5 polymerase domain (DENVpol, serotype 2, New Guinea C strain) (Dengue virus type 2, UniProt P14340)
# assay: Dengue virus polymerase inhibition assay
# run.conditions: DENVpol serotype 2, 3 hours at 30° C., mean of several independent experiments
# Protocol: The enzyme activity of dengue virus NS5 polymerase domain (DENVpol, serotype 2, New Guinea C strain) was measured as an incorporation of tritiated NMP into acid-insoluble RNA products. […] After washing of the plate, scintillation liquid was added and radiolabeled RNA products were detected according to standard procedures with a Trilux Topcount scintillation counter. […]
pIC50: −log10 of the molar value.

Field: example entries. Status: answers known.
Tell me the measured pIC50 of C[C@]1(F)[C@H](n2ccc(=O)[nH]c2=O)O[C@](F)(COP(=O)(O)OP(=O)(O)OP(=O)(O)O)[C@H]1O [compound 147] , please. > 5.00

C[C@@]1(F)[C@H](O)[C@@](CF)(COP(=O)(O)OP(=O)(O)OP(=O)(O)O)O[C@H]1n1cnc2c(=O)[nH]c(N)nc21 [compound 162] , same question. > 5.00

Moving on to C[C@@]1(O)[C@H](O)[C@@](CF)(COP(=O)(O)OP(=O)(O)OP(=O)(O)O)O[C@H]1n1cnc2c(=O)[nH]c(N)nc21 [compound 34] > 6.00

Same question for C[C@]1(F)[C@H](n2ccc(N)nc2=O)O[C@](F)(COP(=O)(O)OP(=O)(O)OP(=O)(O)O)[C@H]1O [compound 29] please. > 6.00

Also C#C[C@]1(O)[C@H](n2cnc3c(=O)[nH]c(N)nc32)O[C@](F)(COP(=O)(O)OP(=O)(O)OP(=O)(O)O)[C@H]1O [compound 115] ? > 6.00

Proceed to C[C@@]1(O)[C@H](O)[C@@](CF)(COP(=O)(O)OP(=O)(O)OP(=O)(O)O)O[C@H]1n1ccc(N)nc1=O [compound 91] > 4.00

Item: C[C@@]1(O)[C@H](O)[C@@](CF)(COP(=O)(O)OP(=O)(O)OP(=O)(O)O)O[C@H]1n1ccc(=O)[nH]c1=O [compound 92] > 5.00

Continue with C[C@]1(O)[C@H](n2ccc(=O)[nH]c2=O)O[C@](F)(COP(=O)(O)OP(=O)(O)OP(=O)(O)O)[C@H]1O [Compound 110] > 6.00

Next:
Reported pIC50 for C[C@]1(O)[C@H](n2cnc3c(=O)[nH]c(N)nc32)O[C@](F)(COP(=O)(O)OP(=O)(O)OP(=O)(O)O)[C@H]1F [compound 101] : what is it? > 5.00

For Nc1ccn([C@@H]2O[C@](CCl)(COP(=O)(O)OP(=O)(O)OP(=O)(O)O)[C@@H](O)[C@H]2O)c(=O)n1 [compound 164] then? > 4.00

Then what about the compound C#C[C@]1(O)[C@H](n2ccc(=O)[nH]c2=O)O[C@](F)(COP(=O)(O)OP(=O)(O)OP(=O)(O)O)[C@H]1O [compound 114] ? > 5.00

###

# target.of.assay: NS5B570-Con1 (Delta-21) (Hepatitis C virus genotype 1b, UniProt Q9WMX2)
# assay: biochemical
assay.endpoint: IC50

What value of IC50 has been reported for the following compound? "C[C@@]1(Cl)[C@H](O)[C@@](CF)(COP(=O)(O)OP(=O)(O)OP(=O)(O)O)O[C@H]1n1ccc(=O)[nH]c1=O" 1000 to 10000 nM

Others:
// IC50 lookup, key: "C[C@@]1(O)[C@H](O)[C@@](CF)(COP(=O)(O)OP(=O)(O)OP(=O)(O)O)O[C@H]1n1ccc2c(N)ncnc21" < 1000 nM

Next compound up: "C#C[C@@]1(O)[C@H](O)[C@@](CF)(COP(=O)(O)OP(=O)(O)OP(=O)(O)O)O[C@H]1n1ccc(=O)[nH]c1=O" < 1000 nM
